Reported EC50 (read off the curve) by item:
# assayed_target: T1, TIGIT fusion protein with Fc or mFc tag (human, UniProt Q495A1 22-141)
# T1 construct: extracellular domain; also called TIGIT-Fc; TIGIT-mFc
# T1 sequence (looked up): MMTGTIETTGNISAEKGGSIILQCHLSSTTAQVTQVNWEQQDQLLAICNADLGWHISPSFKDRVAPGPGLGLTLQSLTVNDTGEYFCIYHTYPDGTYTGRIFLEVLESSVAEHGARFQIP
# test_summary: ELISA: human TIGIT-Fc or TIGIT-mFc captured by coated anti-Fc antibody, HRP secondary antibody, OD450

>  <binder>
h1707-02 (antibody, human IgG4 S228P, kappa, V domains shown, also called humanized TIGIT antibody h1707-02) VH: EVQLVESGGGLVQPGGSLRLSCAASGFTFSDYHMYWVRQAPGKGLEWVAYISKGGISTYYPDTVKGRFTISRDNAKNSLYLQMSRLRAEDTAVYYCARQSSYDFAMDYWGRGTLVTVSS VL: DIQMTQSPSFLSASVGDRVTITCKASQDVGTSVAWYQQKPGKAPKLLIYWASARHTGVPSRFSGSGSGTDFTLTISSLQPEDFATYYCQQYSSYPLTFGQGTKLEIKR

>  <EC50 (read off the curve)>
~0.1 nM

$$$$
>  <binder>
h1710-01 (antibody, human IgG4 S228P, kappa, V domains shown, also called humanized TIGIT antibody h1710-01) VH: EVQLVQSGAEVKKPGASVKVSCKASGYTFTNYYMHWVRQAPGQGLEWMGRIDPTSGATKYNDNFKGRVTMTRDTSTSTVYMELSSLRSEDTAVYYCAREGGFGYYFDYWGQGTTVTVSS VL: DIQMTQSPSSLSASVGDRVTITCRTSENIFTYLAWYQQKPGKAPKLLIYNAKTFAEGVPSRFSGSGSGTDFTLTISSLQPEDFATYYCQHHYGIPLPFGQGTKLEIKR

>  <EC50 (read off the curve)>
~0.1 nM

$$$$
>  <binder>
h1709-10 (antibody, human IgG4 S228P, kappa, V domains shown, also called humanized TIGIT antibody h1709-10) VH: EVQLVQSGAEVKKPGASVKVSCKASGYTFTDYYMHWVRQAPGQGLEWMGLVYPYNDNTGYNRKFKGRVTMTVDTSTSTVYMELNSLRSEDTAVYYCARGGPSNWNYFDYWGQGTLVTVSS VL: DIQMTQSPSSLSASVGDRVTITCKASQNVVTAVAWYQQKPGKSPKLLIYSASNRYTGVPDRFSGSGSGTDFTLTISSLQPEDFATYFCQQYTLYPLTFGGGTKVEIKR

>  <EC50 (read off the curve)>
~0.1 nM

$$$$
>  <binder>
h1708-04 (antibody, human IgG4 S228P, kappa, V domains shown, also called humanized TIGIT antibody h1708-04) VH: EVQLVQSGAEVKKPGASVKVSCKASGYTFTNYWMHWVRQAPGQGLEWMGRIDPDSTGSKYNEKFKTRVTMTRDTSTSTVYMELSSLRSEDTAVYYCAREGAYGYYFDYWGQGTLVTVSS VL: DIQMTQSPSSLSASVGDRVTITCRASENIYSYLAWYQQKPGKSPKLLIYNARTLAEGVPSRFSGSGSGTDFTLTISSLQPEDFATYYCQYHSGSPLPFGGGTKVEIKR

>  <EC50 (read off the curve)>
~0.1 nM

$$$$
>  <binder>
10A7 hIgG4 (antibody, V domains shown) VH: EVQLVESGGGLTQPGKSLKLSCEASGFTFSSFTMHWVRQSPGKGLEWVAFIRSGSGIVFYADAVRGRFTISRDNAKNLLFLQMNDLKSEDTAMYYCARRPLGHNTFDSWGQGTLVTVSS VL: DIVMTQSPSSLAVSPGEKVTMTCKSSQSLYYSGVKENLLAWYQQKPGQSPKLLIYYASIRFTGVPDRFTGSGSGTDYTLTITSVQAEDMGQYFCQQGINNPLTFGDGTKLEIKR

>  <EC50 (read off the curve)>
~0.2 nM

$$$$
